Each entry below lists one item and its recorded MIC E. coli ATCC 25922 value.
# System: E. coli ATCC 25922
# Test Conditions: ATCC 25922
Positions of bridges follow the written chain, without caps; N, C: chain ends. Non-standard residues stand in square brackets, D forms with d. Residues, ends and D or L forms follow the SMILES beside them. *: point of attachment. Bip = N[C@@H](Cc1ccc(-c2ccccc2)cc1)C(=O)O; Decanoyl(3R-OH) = CCCCCCC[C@@H](O)CC(=O)*; dOrn = NCCC[C@@H](N)C(=O)O; dDab = NCC[C@@H](N)C(=O)O; Dab = NCC[C@H](N)C(=O)O
Just the number in µg/mL, nothing appended.

INSERT INTO measurements (compound, tested_on, measured_attribute, unit, observed_measurement) VALUES
  ('CCCCCCC[C@@H](O)CC(=O)N[C@H](CCN)C(=O)N[C@H]1CCNC(=O)[C@H]([C@@H](C)O)NC(=O)[C@H](CCN)NC(=O)[C@H](CCN)NC(=O)[C@H](Cc2ccc(-c3ccccc3)cc2)NC(=O)[C@@H](Cc2ccccc2)NC(=O)[C@H](CCN)NC1=O [compound 5607] ({Decanoyl(3R-OH)}-[dDab][Dab][Dab][dF][Bip][Dab][Dab]T; lactam 2-C)', 'E. coli ATCC 25922', 'MIC E. coli ATCC 25922', 'µg/mL', 8);

Let us move to another entry and its MIC E. coli ATCC 25922.
State MIC E. coli ATCC 25922 on E. coli ATCC 25922. Entry: CCCCCCC[C@@H](O)CC(=O)N[C@H](CCCN)C(=O)N[C@H]1CCNC(=O)[C@H](CC(C)C)NC(=O)[C@H](CCN)NC(=O)[C@H](CCN)NC(=O)[C@H](Cc2ccccc2)NC(=O)[C@@H](CC(C)C)NC(=O)[C@H](CCN)NC1=O [compound 6428] ({Decanoyl(3R-OH)}-[dOrn][Dab][Dab][dL]F[Dab][Dab]L; lactam 2-C) 16

* * *

# Protocol Notes: in vitro
# Test Conditions: human
Starred links: 1 amine or outer side, 2 acyl side, 3 side chain; linkers in the order of their positions; H or OH if unused. Positions of bridges follow the written chain, without caps; N, C: chain ends. Non-standard residues stand in square brackets, D forms with d. Residues, ends and D or L forms follow the SMILES beside them. *: point of attachment. Decanoyl(3R-OH) = CCCCCCC[C@@H](O)CC(=O)*; d(hPhe) = N[C@H](CCc1ccccc1)C(=O)O; Heptanoyl(6-Me) = CC(C)CCCCC(=O)*; NH(2-ClPh) = Clc1ccccc1N*; dDab = NCC[C@@H](N)C(=O)O; Octanoyl = CCCCCCCC(=O)*; dDap = NC[C@@H](N)C(=O)O; Dab = NCC[C@H](N)C(=O)O; Abu = CC[C@H](N)C(=O)O; CO = O=C([*:1])[*:2]
Each entry below lists one item and its recorded CC50 at 24 h value.

INSERT INTO measurements (compound, measured_attribute, observed_measurement) VALUES
  ('CCCCCCCC(=O)N[C@H](CN)C(=O)N[C@H]1CCNC(=O)[C@H](Cc2c[nH]c3ccccc23)NC(=O)[C@H](CCN)NC(=O)[C@H](CCN)NC(=O)[C@H](CC(C)C)NC(=O)[C@@H](Cc2ccccc2)NC(=O)[C@H](CCN)NC1=O [compound 8887] (Octanoyl-[dDap][Dab][Dab][dF]L[Dab][Dab]W; lactam 2-C)', 'CC50 at 24 h', '190 µM'),
  ('CCCCCCC[C@@H](O)CC(=O)N[C@H](CN)C(=O)N[C@H]1CCNC(=O)[C@H](CC(C)C)NC(=O)[C@H](CCN)NC(=O)[C@H](CCN)NC(=O)[C@H](CC)NC(=O)[C@@H](Cc2ccccc2)NC(=O)[C@H](CCN)NC1=O [compound 9292] ({Decanoyl(3R-OH)}-[dDap][Dab][Dab][dF][Abu][Dab][Dab]L; lactam 2-C)', 'CC50 at 24 h', '> 300 µM');

Entry CC(C)CCCCC(=O)N[C@H](CCN)C(=O)N[C@H]1CCNC(=O)[C@H](CC(C)C)NC(=O)[C@H](CCN)NC(=O)[C@H](CCN)NC(=O)[C@H](CC(C)C)NC(=O)[C@@H](Cc2ccccc2)NC(=O)[C@H](CCN)NC1=O [compound 9290] ({Heptanoyl(6-Me)}-[dDab][Dab][Dab][dF]L[Dab][Dab]L; lactam 2-C) needs its CC50 at 24 h filled in; supply it. > 300 µM

Entry CCCCCCC[C@@H](O)CC(=O)N[C@H](CCN)C(=O)N[C@H]1CCNC(=O)[C@H](Cc2c[nH]c3ccccc23)NC(=O)[C@H](CCN)NC(=O)[C@H](CCN)NC(=O)[C@H](CC(C)C)NC(=O)[C@@H](CCc2ccccc2)NC(=O)[C@H](CCN)NC1=O [compound 8129] ({Decanoyl(3R-OH)}-[dDab][Dab][Dab][d(hPhe)]L[Dab][Dab]W; lactam 2-C) needs its CC50 at 24 h filled in; supply it. 37 µM

Entry CC(C)C[C@@H]1NC(=O)[C@H](CCN)NC(=O)[C@H](CCN)NC(=O)[C@H](CC(C)C)NC(=O)[C@@H](Cc2ccccc2)NC(=O)[C@H](CCN)NC(=O)[C@@H](NC(=O)[C@@H](CN)NC(=O)Nc2ccccc2Cl)CCNC1=O [compound 9188] ({NH(2-ClPh)-CO}-[dDap][Dab][Dab][dF]L[Dab][Dab]L; lactam 2-C) needs its CC50 at 24 h filled in; supply it. > 300 µM

Entry CCCCCCC[C@@H](O)CC(=O)N[C@H](CCN)C(=O)N[C@H]1CCNC(=O)[C@H](Cc2c[nH]c3ccccc23)NC(=O)[C@H](CCN)NC(=O)[C@H](CCN)NC(=O)[C@H](CC(C)C)NC(=O)[C@@H](Cc2c[nH]c3ccccc23)NC(=O)[C@H](CCN)NC1=O [compound 8127] ({Decanoyl(3R-OH)}-[dDab][Dab][Dab][dW]L[Dab][Dab]W; lactam 2-C) needs its CC50 at 24 h filled in; supply it. 63 µM

* * *

# Tested on: P. aeruginosa GN_043, PmxR
# Test Conditions: P. aeruginosa GN_043, PmxR
# Method: Bacteria were either obtained from American Type Culture Collection (ATCC; Manassas, Va., USA) or independent academic clinical isolate collections, as listed in Table 18 below. Bacteria were cultured in Nutrient broth (NB; Bacto Laboratories, catalogue No. 234000) or Mueller Hinton broth (MHB; Bacto Laboratories, catalogue No. 211443) at 37° C. overnight with shaking (˜180 RPM). […]
Positions of bridges follow the written chain, without caps; N, C: chain ends. Non-standard residues stand in square brackets, D forms with d. Residues, ends and D or L forms follow the SMILES beside them. *: point of attachment. Benzoyl(4-Ph) = O=C(c1ccc(-c2ccccc2)cc1)*; Bip = N[C@@H](Cc1ccc(-c2ccccc2)cc1)C(=O)O; Decanoyl(3R-OH) = CCCCCCC[C@@H](O)CC(=O)*; dBip = N[C@H](Cc1ccc(-c2ccccc2)cc1)C(=O)O; dDab = NCC[C@@H](N)C(=O)O; Dab = NCC[C@H](N)C(=O)O
Each entry below lists one item and its recorded MIC P. aeruginosa GN_043, PmxR value.
Just the number in µg/mL, nothing appended.

Use these answered entries as a reference point.
INSERT INTO measurements (compound, tested_on, observed_measurement) VALUES
  ('CCCCCCC[C@@H](O)CC(=O)N[C@H](CCN)C(=O)N[C@H]1CCNC(=O)[C@H]([C@@H](C)O)NC(=O)[C@H](CCN)NC(=O)[C@H](CCN)NC(=O)[C@H](Cc2ccc(-c3ccccc3)cc2)NC(=O)[C@@H](Cc2ccccc2)NC(=O)[C@H](CCN)NC1=O [compound 5607] ({Decanoyl(3R-OH)}-[dDab][Dab][Dab][dF][Bip][Dab][Dab]T; lactam 2-C)', 'P. aeruginosa GN_043, PmxR', 2),
  ('CC(C)C[C@@H]1NC(=O)[C@H](CCN)NC(=O)[C@H](CCN)NC(=O)[C@H](Cc2ccccc2)NC(=O)[C@@H](CC(C)C)NC(=O)[C@H](CCN)NC(=O)[C@@H](NC(=O)[C@@H](CCN)NC(=O)c2ccc(-c3ccccc3)cc2)CCNC1=O [compound 6518] ({Benzoyl(4-Ph)}-[dDab][Dab][Dab][dL]F[Dab][Dab]L; lactam 2-C)', 'P. aeruginosa GN_043, PmxR', 2),
  ('CCCCCCC[C@@H](O)CC(=O)N[C@H](CCN)C(=O)N[C@H]1CCNC(=O)[C@H](CC(C)C)NC(=O)[C@H](CCN)NC(=O)[C@H](CCN)NC(=O)[C@H](CC(C)C)NC(=O)[C@@H](Cc2ccc(-c3ccccc3)cc2)NC(=O)[C@H](CCN)NC1=O [compound 5010] ({Decanoyl(3R-OH)}-[dDab][Dab][Dab][dBip]L[Dab][Dab]L; lactam 2-C)', 'P. aeruginosa GN_043, PmxR', 2),
  ('CCCCCCC[C@@H](O)CC(=O)N[C@H](CCN)C(=O)N[C@H]1CCNC(=O)[C@H](CC(C)C)NC(=O)[C@H](CCN)NC(=O)[C@H](CCN)NC(=O)[C@H](CC(C)C)NC(=O)[C@H](Cc2ccccc2)NC(=O)[C@H](CCN)NC1=O [compound 5002] ({Decanoyl(3R-OH)}-[dDab][Dab][Dab]FL[Dab][Dab]L; lactam 2-C)', 'P. aeruginosa GN_043, PmxR', 8);

Let us move to another entry and its MIC P. aeruginosa GN_043, PmxR.
Entry CCCCCCC[C@@H](O)CC(=O)N[C@H](CCN)C(=O)N[C@H]1CCNC(=O)[C@H](CC(C)C)NC(=O)[C@H](CCN)NC(=O)[C@H](CCN)NC(=O)[C@H](Cc2ccccc2)NC(=O)[C@@H](Cc2ccccc2)NC(=O)[C@H](CCN)NC1=O [compound 5003] ({Decanoyl(3R-OH)}-[dDab][Dab][Dab][dF]F[Dab][Dab]L; lactam 2-C) needs its MIC P. aeruginosa GN_043, PmxR filled in; supply it. 2
